Measured values drawn from patent US20240016931A1 for this set.

Target: T1, Fc-tagged human TSLP antigen (huTSLP-Fc) (human, biotin-labeled in the blocking assays)
T1 construct: whole entry named; also called recombinant human TSLP-Fc
Assay: competition FACS: biotin-TSLP-Fc binding to CHOK1-TSLPR/IL-7R cells
property-name: IC50 (nM)
Dear colleague, please return just the value in nM, with no unit written.

Known IC50 results, listed for orientation:
| binder | unit-symbol | IC50 |
| --- | --- | --- |
| hu119-30 (antibody, human IgG1, kappa, V domains shown, IgG1-YTE, kappa; also called hu119VH8 + hu119VL6-N31S) VH: EAQLVQSGAEVKKPGSSVKVSCKASGFTFSTYNMHWVRQAPGQGLEWIGAIYPGNGETSYNQKFKDRATLTVDKSTRTAYMELSSLRSEDTAVYYCAREDDYGEGYFDVWGQGTTVTVSS VL: DIVLTQSPATLSLSPGERATLSCRASESVDSSGLSFMHWYQQKPGQPPRLLLYRASNLGSGIPARFSGSGSGTDFTLTISSLEPEDFAVYYCQQINTDPLTFGQGTKLEIKR | nM | 0.137 |
| AMG157 (tezepelumab, anti-TSLP antibody) (antibody, human IgG2, lambda, V domains shown, positive control) VH: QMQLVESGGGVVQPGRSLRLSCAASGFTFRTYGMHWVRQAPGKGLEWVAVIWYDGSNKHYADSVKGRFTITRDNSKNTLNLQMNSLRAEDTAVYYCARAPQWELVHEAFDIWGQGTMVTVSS VL: SYVLTQPPSVSVAPGQTARITCGGNNLGSKSVHWYQQKPGQAPVLVVYDDSDRPSWIPERFSGSNSGNTATLTISRGEAGDEADYYCQVWDSSSDHVVFGGGTKLTVLG | nM | 0.207 |
| hu179-33 (antibody, human IgG1, kappa, V domains shown, IgG1-YTE, kappa; also called hu179VH3-N55V + hu179VL8-N53E) VH: EVQLVQSGAEVKKPGSSVKVSCKASGYTFSNYLIEWVRQAPGQGLEWIGVIDPGVGDTNYNENFKGRATLTADKSTSTAYIELSSLRSEDTAVYYCAREDNTGTAFDYWGQGTTVTVSS VL: SIVMTQTPLSLSVTPGQPASISCKASQSVSSDVTWYLQKPGQSPQLLIYYVSEHYTGVPDRFSGSGYGTDFTLKISRVEAEDVGVYYCQQHHRFPLTFGQGTKLEIKR | nM | 0.187 |

Look up IC50 for this binder: hu199-36 (antibody, human IgG1, kappa, V domains shown, IgG1-YTE, kappa) VH: EVQLVQSGAEVKKPGASVKVSCKASGYTFTTYWMHWVKQAPGQGLEWMGMIDPSDSETTLIQKFKDKVTLTVDKSTSTAYMELSSLRSEDTAVYYCARTLDGYYDYWGQGTTVTVSS VL: DIQMTQSPSSLSASVGDRVTITCRASENIYSYLAWYQQKPGKSPQLLVYFAKTLAEGVPSRFSGSVSGTQFTLTISSLQPEDFATYYCQHHYGTPWTFGGGTKVEIKR
0.227
